Assayed System: NLRP3 inflammasome (Homo sapiens, UniProt Q96P20)
Sequence (Q96P20 whole entry): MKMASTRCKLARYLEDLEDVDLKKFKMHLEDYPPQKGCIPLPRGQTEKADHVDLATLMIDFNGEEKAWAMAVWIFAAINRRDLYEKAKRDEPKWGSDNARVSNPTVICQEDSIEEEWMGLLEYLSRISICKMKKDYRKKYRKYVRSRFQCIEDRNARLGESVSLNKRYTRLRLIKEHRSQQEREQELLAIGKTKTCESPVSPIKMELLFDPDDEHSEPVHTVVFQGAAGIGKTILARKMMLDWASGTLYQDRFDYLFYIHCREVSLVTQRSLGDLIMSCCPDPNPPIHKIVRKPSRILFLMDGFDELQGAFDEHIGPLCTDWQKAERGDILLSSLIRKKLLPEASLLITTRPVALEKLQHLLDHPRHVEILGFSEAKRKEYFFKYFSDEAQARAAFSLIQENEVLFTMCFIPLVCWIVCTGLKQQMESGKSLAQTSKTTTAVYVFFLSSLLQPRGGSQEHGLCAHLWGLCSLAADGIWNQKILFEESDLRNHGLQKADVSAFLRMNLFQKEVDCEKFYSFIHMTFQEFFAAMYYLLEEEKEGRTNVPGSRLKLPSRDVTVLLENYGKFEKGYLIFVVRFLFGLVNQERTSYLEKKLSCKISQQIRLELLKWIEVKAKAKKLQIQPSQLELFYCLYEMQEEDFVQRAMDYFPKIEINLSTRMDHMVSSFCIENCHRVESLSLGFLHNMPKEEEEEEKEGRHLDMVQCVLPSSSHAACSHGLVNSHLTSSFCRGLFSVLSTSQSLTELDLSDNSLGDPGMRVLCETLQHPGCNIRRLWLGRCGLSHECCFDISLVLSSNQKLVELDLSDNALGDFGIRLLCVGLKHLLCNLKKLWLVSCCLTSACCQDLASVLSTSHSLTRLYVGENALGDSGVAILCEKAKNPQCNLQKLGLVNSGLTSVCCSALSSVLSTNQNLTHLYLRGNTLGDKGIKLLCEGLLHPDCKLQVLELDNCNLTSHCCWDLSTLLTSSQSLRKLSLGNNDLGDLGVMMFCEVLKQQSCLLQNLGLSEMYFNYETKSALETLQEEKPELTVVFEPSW
Assay Details: NLRP3 inflammasome activation in LPS-primed, nigericin-activated THP1 macrophages, IL-1β AlphaLISA
Experimental Context: PMA-differentiated, 1 hr compound, Nigericin 6.7 uM 3 hrs, IL-1β in supernatant
Experimental: NLRP3 Inflammasome Activation and Cell Viability Assessment in THP1 Macrophages […] Thereafter, 30 ul samples of cells' supernatants were collected for cytokine analysis which was conducted on Hu IL-1β AlphaLISA (Perkin Elmer, cat #AL220C) and Hu IL-6 AlphaLISA (Perkin Elmer, cat #AL220C). The cells' viability was assessed by performing CellTiter-Glo Luminescent Assay (Promega, cat #G7572) according to the manufacturer's protocol.
pIC50: −log10 of the molar value.
Endpoint Name: pIC50

# Molecule, pIC50
records = [
    ("N#Cc1ccc(-c2nnc(N[C@@H]3CCCN(CCF)C3)c3sncc23)c(O)c1 [Compound 150]", "7.00 to 8.00"),
    ("CN1CCCC(Cc2nnc(-c3ccc(C(F)(F)F)cc3)c3cc[nH]c23)C1 (stereo not shown) [Compound 83]", "7.00 to 8.00"),
    ("Cn1ccc2c(-c3ccc(C#N)cc3O)nnc(N[C@@H]3CCCN(CCN)C3)c21 [Compound 164]", "6.30 to 7.00"),
]

Alright, here's another molecule for you.
Look up pIC50 for this molecule: CN1CCC[C@@H](N(C)c2nnc(-c3ccccc3O)c3[nH]ccc23)C1 (single isomer, unassigned) [Compound 68]
≤ 5.00
